test: Solubility in organic solvents; type: physicochemical; conditions: organic solvent or mixture, thermodynamic from solid; DMSO, 21° C.; read-out: free drug concentration (solubility)
attribute-measured: solubility

compound="Cc1n[nH]c(C(=O)Nc2cnc3[nH]c(-c4ccccc4)cc3c2)c1C [Bezuclastinib]" attribute_measured=solubility result="< 20 mg/mL"

###

experiment: clinical; conditions: human, in vivo, po
attribute-measured: half-life

smiles_data=Cc1n[nH]c(C(=O)Nc2cnc3[nH]c(-c4ccccc4)cc3c2)c1C result="48.6 to 71.4 h"
